Recorded %Inh, one value per entry.
Tested on: DCAMKL3
Construct: gene DCLK3
Settings: concentration: 1 μM, replicates: in singlicate; n = 1;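 note: KINOMEscan kinase panel screen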
parameter_measured: %Inh

[[record]]
compound = "CN1CCN(Cc2ccc(NC(=O)Nc3ccc(N(C)c4ccnc(Nc5ccc(CS(C)(=O)=O)cc5)n4)cc3)cc2)CC1.Cl"
parameter_measured = "%Inh"
result = "30%"

[[record]]
compound = "CN(c1ccc(F)c(NC(=O)c2cccc(OC(C)(C)C#N)c2Cl)c1)c1ccc2nc(NC(=O)C3CC3)sc2n1"
parameter_measured = "%Inh"
result = "0%"

[[record]]
compound = "Cl.Cl.NCC(NC(=O)c1cc(-c2cccnc2)c(-c2ccnc3[nH]ccc23)s1)c1ccccc1 (stereo not drawn)"
parameter_measured = "%Inh"
result = "0%"

[[record]]
compound = "Cl.Cl.NC(CNC(=O)c1cc(Br)c(-c2ccnc3[nH]ccc23)s1)c1ccccc1 (stereo not drawn)"
parameter_measured = "%Inh"
result = "0%"

[[record]]
compound = "Nc1ncc(-c2cn[nH]c2)c2scc(-c3ccc4c(c3)CCN4C(=O)Cc3ccccc3)c12"
parameter_measured = "%Inh"
result = "0%"

[[record]]
compound = "O=C(Nc1c(F)cccc1F)c1cc(C(=O)c2ccccc2F)c[nH]1"
parameter_measured = "%Inh"
result = "36%"

[[record]]
compound = "COC(=O)Nc1nc2ccc(Oc3ccc(NC(=O)Nc4cc(C(F)(F)F)ccc4F)cc3)cc2[nH]1.Cl"
parameter_measured = "%Inh"
result = "36%"

[[record]]
compound = "COc1cc(Nc2nccc(N3CCC(NC(=O)Nc4ccc5c(c4)OCO5)C3)n2)cc(OC)c1OC (stereo not drawn)"
parameter_measured = "%Inh"
result = "0%"

[[record]]
compound = "Cc1cccc(Nc2nc(NCCN)ncc2C(N)=O)c1"
parameter_measured = "%Inh"
result = "0%"


* * *

We begin with a simple list: items and their reported %Inh.
Tested on: TSSK1B
Conditions: concentration: 1 μM, replicates: in singlicate; n = 1
parameter_measured: %Inh

[[record]]
cpd_smiles = "Cc1ccc(C)c(NC(=O)Nc2ccc(C)c(-c3ccc(C(=O)Nc4ccncc4)cc3)c2)c1"
result = "17%"

[[record]]
cpd_smiles = "CCn1cnc2c(NCc3ccccc3)ncnc21"
result = "0%"

[[record]]
cpd_smiles = "Cc1ccccc1CC(=O)N1CCc2cc(-c3cn(C)c4ncnc(N)c34)ccc21"
result = "0%"

[[record]]
cpd_smiles = "Cc1cc(-c2ccnc(Nc3cccc(C#N)c3)n2)cc(C)c1O"
result = "5%"

[[record]]
cpd_smiles = "CN(c1ccc(NC(=O)N2CCN(CCCN3CCOCC3)CC2)cc1)c1ccnc(Nc2ccc(CS(C)(=O)=O)cc2)n1.Cl"
result = "3%"

[[record]]
cpd_smiles = "CN(C)CCNS(=O)(=O)c1ccc(-c2ccnc3[nH]ccc23)cc1"
result = "58%"

[[record]]
cpd_smiles = "Cc1nn2c(=O)cc(N3CCO[C@H](C)C3)nc2n1Cc1cccc(Cl)c1Cl"
result = "21%"

[[record]]
cpd_smiles = "CC(C)c1nc(-c2cccc(NS(=O)(=O)c3c(F)cccc3F)c2)c(-c2ccnc(Nc3ccc(N4CCOCC4)nc3)n2)s1.Cl"
result = "0%"


* * *

System: DMPK
Details: concentration: 1 μM, replicates: in singlicate; n = 1
parameter_measured: %Inh

[[record]]
cpd_smiles = "COc1cc(Nc2nccc(N3CCC(NS(=O)(=O)c4ccc(NC(C)=O)cc4)CC3)n2)cc(OC)c1OC"
parameter_measured = "%Inh"
result = "0%"

[[record]]
cpd_smiles = "Cc1ccc(O)cc1Nc1ccnc2cc(-c3ccc(CN4CCCCC4)o3)ccc12"
parameter_measured = "%Inh"
result = "0%"

[[record]]
cpd_smiles = "Cc1ccc(NC(=O)c2ccnc(N3CCCCC3)c2)cc1-c1ccc(C(=O)NCC2CC2)cc1"
parameter_measured = "%Inh"
result = "0%"

[[record]]
cpd_smiles = "COc1cccc(CC(=O)N2CCc3cc(-c4cn(C)c5ncnc(N)c45)ccc32)c1"
parameter_measured = "%Inh"
result = "25%"

